Reported RU values are given for each entry in this list.
test-system: T1, LAG3 Protein, Human, Recombinant (His Tag) (Sino Biological Catalog No. 16498-H08H) (human, UniProt P18627 23-450)
T1 construct: Bought protein; also called hLAG3-His; LAG3-His; not shown: His tag
T1 sequence (looked up): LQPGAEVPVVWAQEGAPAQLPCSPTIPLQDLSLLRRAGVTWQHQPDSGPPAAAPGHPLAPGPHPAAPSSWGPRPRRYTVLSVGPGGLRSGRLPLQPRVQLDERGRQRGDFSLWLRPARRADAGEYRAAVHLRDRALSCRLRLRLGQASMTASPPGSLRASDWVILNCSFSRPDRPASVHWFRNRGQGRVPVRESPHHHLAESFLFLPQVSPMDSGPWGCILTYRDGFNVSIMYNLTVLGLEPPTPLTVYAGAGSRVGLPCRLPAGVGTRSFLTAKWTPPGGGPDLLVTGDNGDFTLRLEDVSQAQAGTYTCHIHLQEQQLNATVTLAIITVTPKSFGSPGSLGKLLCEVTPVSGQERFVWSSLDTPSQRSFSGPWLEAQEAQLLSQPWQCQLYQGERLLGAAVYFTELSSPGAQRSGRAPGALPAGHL
test-name: SPR binning on LAG3-His; competitor 37
Kindly provide the numeric value in RU only, without the unit symbol.

Observe how each entry below is paired with its result.
{"columns": ["binder", "RU [RU]"],
 "data": [
  ["sdAb No. 25 (VHH, Fc of the tested form not described; also called sdAb 25; sdAb #25; not shown: Fc part implied by anti-human Fc capture and anti-human IgG Fc detection) VHH: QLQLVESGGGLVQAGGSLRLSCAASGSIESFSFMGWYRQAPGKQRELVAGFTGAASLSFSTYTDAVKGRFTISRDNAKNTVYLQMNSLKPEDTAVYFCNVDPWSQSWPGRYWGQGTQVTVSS", 44.1],
  ["sdAb No. 73 (VHH, Fc not described; also called sdAb 73; not shown: Fc part implied by anti-human Fc capture) VHH: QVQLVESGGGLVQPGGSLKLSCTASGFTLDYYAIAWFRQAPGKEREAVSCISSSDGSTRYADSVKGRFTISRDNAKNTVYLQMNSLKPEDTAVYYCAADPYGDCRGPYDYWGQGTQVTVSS", -6.9],
  ["sdAb No. 17 (VHH, Fc of the tested form not described; also called sdAb 17; not shown: Fc part implied by anti-human Fc capture and anti-human IgG1 Fc detection) VHH: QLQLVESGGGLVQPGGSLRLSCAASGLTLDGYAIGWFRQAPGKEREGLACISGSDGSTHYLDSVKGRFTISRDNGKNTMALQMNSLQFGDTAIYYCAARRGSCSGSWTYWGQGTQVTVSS", -13.4]
]}

In the following, a different binder is considered.
Task item: RU lookup needed for sdAb No. 1 (VHH, the tested form was captured by anti-human Fc, its Fc is not described; also called sdAb 1; not shown: Fc part implied by anti-human Fc capture) VHH: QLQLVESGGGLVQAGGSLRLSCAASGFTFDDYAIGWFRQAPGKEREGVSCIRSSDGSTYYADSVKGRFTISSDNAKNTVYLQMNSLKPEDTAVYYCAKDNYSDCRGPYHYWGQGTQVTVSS , thanks.
Reply: -8.4
